- tested.target: human TRPV1 (Homo sapiens (Human), UniProt Q8NER1)
- Sequence (Q8NER1 whole entry): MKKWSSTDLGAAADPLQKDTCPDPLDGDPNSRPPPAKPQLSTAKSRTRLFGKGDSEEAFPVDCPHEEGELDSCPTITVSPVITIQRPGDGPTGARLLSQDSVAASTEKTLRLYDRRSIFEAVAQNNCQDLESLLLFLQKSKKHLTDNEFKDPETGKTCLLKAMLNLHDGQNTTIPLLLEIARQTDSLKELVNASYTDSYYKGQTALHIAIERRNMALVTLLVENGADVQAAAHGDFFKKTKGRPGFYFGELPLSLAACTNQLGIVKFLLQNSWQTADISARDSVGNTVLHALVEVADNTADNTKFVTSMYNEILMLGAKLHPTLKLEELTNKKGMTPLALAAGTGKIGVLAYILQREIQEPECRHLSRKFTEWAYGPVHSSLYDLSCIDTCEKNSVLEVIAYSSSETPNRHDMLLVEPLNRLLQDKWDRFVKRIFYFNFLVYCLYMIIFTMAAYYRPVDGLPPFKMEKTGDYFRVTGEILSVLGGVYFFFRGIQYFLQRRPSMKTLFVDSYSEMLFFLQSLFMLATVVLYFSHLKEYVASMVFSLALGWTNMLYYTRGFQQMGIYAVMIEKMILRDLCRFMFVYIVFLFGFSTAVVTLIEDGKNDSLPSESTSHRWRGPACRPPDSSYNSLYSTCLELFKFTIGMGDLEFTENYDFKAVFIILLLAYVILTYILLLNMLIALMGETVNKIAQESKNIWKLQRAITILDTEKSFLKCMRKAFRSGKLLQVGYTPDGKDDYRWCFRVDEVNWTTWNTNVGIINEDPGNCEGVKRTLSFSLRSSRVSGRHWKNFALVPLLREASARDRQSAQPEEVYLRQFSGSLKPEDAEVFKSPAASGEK
- assay.protocol: Acid Activation Assay (pH 5.0, intracellular Ca2+, FLIPR)
- Assay type: cell-based
- measurement.conditions: percentage of the maximal pH 5.0-induced response remaining; recombinant HEK293 hTRPV1 cells; maximum concentration tested 37.5 μM
# note: boundary value 50% maps to label 0; human TRPV1 H^+ (max % remain) below it maps to label 1

>>> group_label("CC1(C)C[C@@H](NC(=O)Nc2ccc3c(c2)NC(=O)CC3)c2ccc(Cl)cc2O1 [Example 235]")
"label 1"
>>> group_label("CCC1(CC)C[C@@H](NC(=O)Nc2cccc3c2CNC(=O)N3C)c2ccc(Cl)c(Cl)c2O1 [Example 147]")
"label 1"
>>> group_label("CN1Cc2ccc(NC(=O)N[C@@H]3CC(CF)(CF)Oc4cc(C(F)(F)F)ccc43)cc2NC1=O [Example 173]")
"label 0"
>>> group_label("CN1C(=O)CCc2ccc(NC(=O)N[C@@H]3C[C@@](C)(C(F)(F)F)Oc4ccccc43)cc21 [Example 298]")
"label 0"
>>> group_label("CN1C(=O)NCc2c(NC(=O)N[C@@H]3CCOc4ccccc43)cccc21 [Example 168]")
"label 1"
>>> group_label("C[C@]1(C(F)F)C[C@@H](NC(=O)Nc2ccc3c(c2)NC(=O)CO3)c2ccccc2O1 [Example 131]")
"label 0"
>>> group_label("CN1C(=O)NCc2c(NC(=O)N[C@@H]3CC4(CCCC4)Oc4ccccc43)cccc21 [Example 15]")
"label 1"
>>> group_label("CC1(C)C[C@@H](NC(=O)Nc2ccc3c(c2)NC(=O)C(N2CCOCC2)C3)c2ccc(F)cc2O1 (stereo partly shown) [Example 301]")
"label 0"
>>> group_label("CC1(C)C[C@@H](NC(=O)Nc2ccc3c(c2)NC(=O)CC3)c2cccc(C(F)(F)F)c2O1 [Example 218]")
"label 0"
>>> group_label("CCC1(CC)C[C@@H](NC(=O)Nc2cccc3c2ccc(=O)n3C)c2ccc(Cl)cc2O1 [Example 70]")
"label 1"
>>> group_label("Cn1c(=O)ccc2c(NC(=O)N[C@@H]3CC(C)(C)Oc4cc(F)ccc43)cccc21 [Example 19]")
"label 1"
>>> group_label("CN1C(=O)CCc2ccc(NC(=O)N[C@@H]3CC(C)(C)Oc4cc(Cl)ccc43)cc21 [Example 277]")
"label 1"
>>> group_label("CN1Cc2ccc(NC(=O)N[C@@H]3CCOc4cc(C(F)(F)F)ccc43)cc2NC1=O [Example 201]")
"label 1"
>>> group_label("O=C1COc2ccc(NC(=O)N[C@@H]3CC(CF)(CF)Oc4cc(Cl)ccc43)cc2N1 [Example 29]")
"label 0"
>>> group_label("Cn1c(=O)ccc2c(NC(=O)N[C@@H]3CC(CF)(CF)Oc4c(F)cc(F)cc43)cccc21 [Example 72]")
"label 1"
>>> group_label("CN1Cc2ccc(NC(=O)N[C@@H]3CC4(CCCC4)Oc4ccccc43)cc2NC1=O [Example 205]")
"label 0"
>>> group_label("CN1Cc2ccc(NC(=O)N[C@@H]3CC(C)(C)Oc4ccccc43)cc2NC1=O [Example 193]")
"label 0"
>>> group_label("CN1Cc2ccc(NC(=O)N[C@H]3CC4(CCC4)Oc4ccc(F)cc43)cc2NC1=O [Example 203]")
"label 0"
>>> group_label("CC1(C)C[C@@H](NC(=O)Nc2ccc3c(c2)NC(=O)CO3)c2ccc(Cl)cc2O1 [Example 114]")
"label 0"
